Species on record: Rattus norvegicus
assay: Open TG-GATES - Regimen: Daily Repeat
Format: toxicity, organism-based, Sprague-Dawley
Set-up: regimen Daily Repeat, gender Male, age 6 weeks
condition.label: in vivo, po, 0 mg/kg, […], tissue Plasma, route gavage, dose level Control, time 7 day
Quick reference for PL among some compounds

compound: CN(C)[C@@H]1C(O)=C(C(N)=O)C(=O)[C@@]2(O)C(O)=C3C(=O)c4c(O)cccc4[C@@](C)(O)[C@H]3C[C@@H]12
PL: 157.8 mg/dL
--
compound: CC(=O)Nc1nnc(S(N)(=O)=O)s1 [ACETAZOLAMIDE]
PL: 132.6 mg/dL
--
compound: CC(CN1c2ccccc2Sc2ccccc21)N(C)C (centres undefined)
PL: 133.6 mg/dL

API: the following record is the query input.
[in] What value of PL has been recorded for this entry: "Cc1cccc(Nc2ccccc2C(=O)O)c1C"
[out] 135.4 mg/dL

* * *

Quick reference for Na among some compounds
Species on record: Rattus norvegicus
assay: Open TG-GATES - Regimen: Single
Type: toxicity, organism-based, Sprague-Dawley
Parameters: regimen Single, gender Male, age 6 weeks
condition.label: in vivo, po, 0 mg/kg, 6 h, tissue Plasma, route gavage, dose level Control
Response body: numeric value in meq/L, unit text excluded.

compound: CCOC(=O)[C@H](CCc1ccccc1)N[C@@H](C)C(=O)N1CCC[C@H]1C(=O)O
unit.tag: meq/L
Na: 139.4
//
compound: C#C[C@]1(O)CC[C@H]2[C@@H]3CCC4=Cc5oncc5C[C@]4(C)[C@H]3CC[C@@]21C
unit.tag: meq/L
Na: 141
//
compound: Cc1cccc(Nc2ccccc2C(=O)O)c1C
unit.tag: meq/L
Na: 139.6
//
compound: Clc1c(Cl)c(Cl)c(Cl)c(Cl)c1Cl
unit.tag: meq/L
Na: 140.2
//
compound: CN1C(C(=O)Nc2ccccn2)=C(O)c2sc(Cl)cc2S1(=O)=O
unit.tag: meq/L
Na: 140.8

[in] What value of Na has been recorded for this entry: COc1cc([C@@H]2c3cc4c(cc3[C@@H](O[C@@H]3O[C@@H]5CO[C@@H](C)O[C@H]5[C@H](O)[C@H]3O)[C@H]3COC(=O)[C@H]23)OCO4)cc(OC)c1O [ETOPOSIDE]
[out] 142.4

[in] What value of Na has been recorded for this entry: "CN(C)[C@@H]1C(O)=C(C(N)=O)C(=O)[C@@]2(O)C(O)=C3C(=O)c4c(O)cccc4[C@@](C)(O)[C@H]3C[C@@H]12"
[out] 136.4

* * *

Species: Rattus norvegicus
assay: Open TG-GATES - Regimen: Single
Format: toxicity, organism-based, Sprague-Dawley
Set-up: regimen Single, gender Male, age 6 weeks
condition.label: in vivo, po, 0 mg/kg, 3 h, tissue Plasma, route gavage, dose level Control
property.name: TC (mg/dL)
Response body: numeric value in mg/dL, unit text excluded.

[in] What value of TC has been recorded for this entry: "C#C[C@]1(O)CC[C@H]2[C@@H]3CCC4=Cc5oncc5C[C@]4(C)[C@H]3CC[C@@]21C"
[out] 76.8

[in] What value of TC has been recorded for this entry: "CN(C)[C@@H]1C(O)=C(C(N)=O)C(=O)[C@@]2(O)C(O)=C3C(=O)c4c(O)cccc4[C@@](C)(O)[C@H]3C[C@@H]12"
[out] 84

[in] What value of TC has been recorded for this entry: CC(=O)Nc1nnc(S(N)(=O)=O)s1 [ACETAZOLAMIDE]
[out] 78

[in] What value of TC has been recorded for this entry: "Cc1cccc(Nc2ccccc2C(=O)O)c1C"
[out] 80

[in] What value of TC has been recorded for this entry: CC(CN1c2ccccc2Sc2ccccc21)N(C)C (centres undefined)
[out] 75

* * *

Quick reference for BUN among some compounds
Organism: Rattus norvegicus
assay: Open TG-GATES - Regimen: Daily Repeat
Format: toxicity, organism-based, Sprague-Dawley
Parameters: regimen Daily Repeat, gender Male, age 6 weeks
condition.label: in vivo, po, 0 mg/kg, […], tissue Plasma, route gavage, dose level Control, time 14 day
Response body: numeric value in mg/dL, unit text excluded.

Some solved cases for reference:
compound: CCOC(=O)[C@H](CCc1ccccc1)N[C@@H](C)C(=O)N1CCC[C@H]1C(=O)O
value.observed: 19.6
//
compound: CC(=O)Nc1nnc(S(N)(=O)=O)s1 [ACETAZOLAMIDE]
value.observed: 19.8
//
compound: CN1C(C(=O)Nc2ccccn2)=C(O)c2sc(Cl)cc2S1(=O)=O
value.observed: 15.4

API: the following record is the query input.
[in] What value of BUN has been recorded for this entry: "Clc1c(Cl)c(Cl)c(Cl)c(Cl)c1Cl"
[out] 18.6

* * *

Organism: Rattus norvegicus
assay: Open TG-GATES - Regimen: Single
Assay type: toxicity, organism-based, Sprague-Dawley
Design: regimen Single, gender Male, age 6 weeks
condition.label: in vivo, po, 0 mg/kg, 6 h, tissue Blood, route gavage, dose level Control
Quick reference for Mono among some compounds
Response body: numeric value in %, unit text excluded.

compound: CC(CN1c2ccccc2Sc2ccccc21)N(C)C (centres undefined) [PROMETHAZINE]
unit.tag: %
value.observed: 2.4

compound: Cc1cccc(Nc2ccccc2C(=O)O)c1C [MEFENAMIC ACID]
unit.tag: %
value.observed: 2.4

compound: C1CCC(C(CC2CCCCN2)C2CCCCC2)CC1 (centres undefined) [PERHEXILINE]
unit.tag: %
value.observed: 2.2

API: the following record is the query input.
[in] What value of Mono has been recorded for this entry: C#C[C@]1(O)CC[C@H]2[C@@H]3CCC4=Cc5oncc5C[C@]4(C)[C@H]3CC[C@@]21C [DANAZOL]
[out] 2.2

* * *

Quick reference for Eos among some molecules
Species: Rattus norvegicus
assay: Open TG-GATES - Regimen: Single
Type: toxicity, organism-based, Sprague-Dawley
Set-up: regimen Single, gender Male, age 6 weeks
condition.label: in vivo, po, 0 mg/kg, 24 h, tissue Blood, route gavage, dose level Control

molecule: CC(CN1c2ccccc2Sc2ccccc21)N(C)C (stereo not drawn)
value.observed: 0.8%

[in] What value of Eos has been recorded for this entry: C1CCC(C(CC2CCCCN2)C2CCCCC2)CC1 (stereo not drawn)
[out] 0.8%

[in] What value of Eos has been recorded for this entry: CC(=O)Nc1nnc(S(N)(=O)=O)s1 [ACETAZOLAMIDE]
[out] 0.6%

* * *

Quick reference for Fbg among some compounds
Species: Rattus norvegicus
assay: Open TG-GATES - Regimen: Single
Format: toxicity, organism-based, Sprague-Dawley
Set-up: regimen Single, gender Male, age 6 weeks
condition.label: in vivo, po, 0 mg/kg, 6 h, tissue Blood, route gavage, dose level Control
Response body: numeric value in mg/dL, unit text excluded.

Some solved cases for reference:
compound: Clc1c(Cl)c(Cl)c(Cl)c(Cl)c1Cl [PERCHLOROBENZENE]
property.name: Fbg
value.observed: 230.4

compound: Cc1cccc(Nc2ccccc2C(=O)O)c1C [MEFENAMIC ACID]
property.name: Fbg
value.observed: 219.4

API: the following record is the query input.
[in] What value of Fbg has been recorded for this entry: C1CCC(C(CC2CCCCN2)C2CCCCC2)CC1 (stereo not drawn) [PERHEXILINE]
[out] 317.4

* * *

Organism: Rattus norvegicus
assay: Open TG-GATES - Regimen: Single
Assay type: toxicity, organism-based, Sprague-Dawley
Set-up: regimen Single, gender Male, age 6 weeks
condition.label: in vivo, po, 0 mg/kg, 6 h, tissue Plasma, route gavage, dose level Control
property.name: RALB

molecule: COc1cc([C@@H]2c3cc4c(cc3[C@@H](O[C@@H]3O[C@@H]5CO[C@@H](C)O[C@H]5[C@H](O)[C@H]3O)[C@H]3COC(=O)[C@H]23)OCO4)cc(OC)c1O [ETOPOSIDE]
RALB: 3.3 g/dL
//
molecule: Cc1cccc(Nc2ccccc2C(=O)O)c1C
RALB: 3.3 g/dL
//
molecule: CN(C)[C@@H]1C(O)=C(C(N)=O)C(=O)[C@@]2(O)C(O)=C3C(=O)c4c(O)cccc4[C@@](C)(O)[C@H]3C[C@@H]12
RALB: 3.7 g/dL

[in] What value of RALB has been recorded for this entry: CC(CN1c2ccccc2Sc2ccccc21)N(C)C (stereo not given)
[out] 3 g/dL

[in] What value of RALB has been recorded for this entry: C1CCC(C(CC2CCCCN2)C2CCCCC2)CC1 (stereo not given)
[out] 3 g/dL

* * *

Species on record: Rattus norvegicus
assay: Open TG-GATES - Regimen: Daily Repeat
Type: toxicity, organism-based, Sprague-Dawley
Set-up: regimen Daily Repeat, gender Male, age 6 weeks
condition.label: in vivo, po, 0 mg/kg, […], tissue Blood, route gavage, dose level Control, time 14 day
Quick reference for Lym among some compounds
Response body: numeric value in %, unit text excluded.

compound: C1CCC(C(CC2CCCCN2)C2CCCCC2)CC1 (configuration not stated)
Lym / %: 82
--
compound: CN1C(C(=O)Nc2ccccn2)=C(O)c2sc(Cl)cc2S1(=O)=O
Lym / %: 82

[in] What value of Lym has been recorded for this entry: "CCOC(=O)[C@H](CCc1ccccc1)N[C@@H](C)C(=O)N1CCC[C@H]1C(=O)O"
[out] 79.2

[in] What value of Lym has been recorded for this entry: "Clc1c(Cl)c(Cl)c(Cl)c(Cl)c1Cl"
[out] 78.8

[in] What value of Lym has been recorded for this entry: "CN(C)[C@@H]1C(O)=C(C(N)=O)C(=O)[C@@]2(O)C(O)=C3C(=O)c4c(O)cccc4[C@@](C)(O)[C@H]3C[C@@H]12"
[out] 80.4

[in] What value of Lym has been recorded for this entry: "O=C(O)Cc1ccccc1Nc1c(Cl)cccc1Cl"
[out] 80.8

[in] What value of Lym has been recorded for this entry: CC(CN1c2ccccc2Sc2ccccc21)N(C)C (configuration not stated)
[out] 80.2
